# MEASURED TARGET: eOD-GT8 (monomeric ligand) (Human immunodeficiency virus 1, …)
pKd: −log10 of the molar value.
Collected pKd values appear next to each entry.
MEASURED ENDPOINT: pKd

BINDER	MEASURED ENDPOINT	RECORDED VALUE
GT8-D36-13_CLK09 (antibody, V domains shown) VH: QVQLVQSGAEVKKPGASVKVSCKASGYTFTGYYIHWVRQAPGQGLKWMGWINPNSGGTNYAQKFQGRVTMTRDTSISTAYLELSRLRSDDTAVYYCARVEGLWTFDIWGQGTMVTVSS VL: DIQMTQSPSSLSASVGDRVTITCQASQDISNYLNWYQQKPGKAPKVLIYDASNLETGVPSRFSGSGSGTDFTFTISSLQSEDVATYYCQQYEFFGGGTTVEIK	pKd	6.27
g28-D78-14_CLK09 (antibody, V domains shown) VH: QVQLVQSGAEVKKPGASVRVSCKASGYTFTGNYIHWVRQAPGQGLEWMGWLNPINGGTNHAQKFQGRVTMTRDTSISTAYMELSRLRSDDTTVYYCARVGGLWFGKGWTFDIWGQGTMVTVSS VL: DIQMTQSPSSLSASVGDRVTITCQASQDISILNWYQQKPGKAPKLLIYGASNLETGVPSRFSGSGSGTDFTLTISSLQPEDIATYYCQQYEFFGGGTKVAIK	pKd	9.54
g5-D78-12_CLK19 (antibody, V domains shown) VH: QVQLVQSGAEVKKPGASVKVSCKASGYTFTGYYIHWVRQAPGQGLEWMGWINPSYGAVNYARKFQGRVTMTRDTSISTAYMELQRLRSDDTAIYHCTIALAGYRWGFDYWGQGALVTVSS VL: DIQMTQSPSSLSAFVGDRVTITCQARLDIRYSLNWYQQKPGKAPNLLIYDASNLETGVPSRFSGSGSGTNFTFTINTLQPEDIATYYCQQYETFGPGTKVDIK	pKd	7.92
